B1: Twister Ribozyme (parent)
chain: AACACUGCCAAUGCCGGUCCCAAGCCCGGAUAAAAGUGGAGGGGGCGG

# Variants of: B1
# method-summary: self-cleavage, relative activity (ratio to wild type); higher = more cleavage; co-transcriptional
self-cleavage by entry:
Number, no unit, nothing else.

Below, 6 variants whose answers are already recorded.
1) C3A G45C	0.0823
2) C3A A32U	0.278
3) C25G A35G	0.0857
4) U31A A33U	0.935
5) U37A G44U	0.755
6) C8G G28C	0.083

For A1C U6G , what is its reported self-cleavage?
0.0831

Similarly, C9G G36A ?
0.204

Similarly, C21A C27A ?
0.0685

Similarly, A2G G41U ?
0.0697

Similarly, U6G G28C ?
0.16

Similarly, G38U G43C ?
0.126
